Study system: ATP-dependent translocase ABCB1 (Homo sapiens)
Sequence (P08183 whole entry): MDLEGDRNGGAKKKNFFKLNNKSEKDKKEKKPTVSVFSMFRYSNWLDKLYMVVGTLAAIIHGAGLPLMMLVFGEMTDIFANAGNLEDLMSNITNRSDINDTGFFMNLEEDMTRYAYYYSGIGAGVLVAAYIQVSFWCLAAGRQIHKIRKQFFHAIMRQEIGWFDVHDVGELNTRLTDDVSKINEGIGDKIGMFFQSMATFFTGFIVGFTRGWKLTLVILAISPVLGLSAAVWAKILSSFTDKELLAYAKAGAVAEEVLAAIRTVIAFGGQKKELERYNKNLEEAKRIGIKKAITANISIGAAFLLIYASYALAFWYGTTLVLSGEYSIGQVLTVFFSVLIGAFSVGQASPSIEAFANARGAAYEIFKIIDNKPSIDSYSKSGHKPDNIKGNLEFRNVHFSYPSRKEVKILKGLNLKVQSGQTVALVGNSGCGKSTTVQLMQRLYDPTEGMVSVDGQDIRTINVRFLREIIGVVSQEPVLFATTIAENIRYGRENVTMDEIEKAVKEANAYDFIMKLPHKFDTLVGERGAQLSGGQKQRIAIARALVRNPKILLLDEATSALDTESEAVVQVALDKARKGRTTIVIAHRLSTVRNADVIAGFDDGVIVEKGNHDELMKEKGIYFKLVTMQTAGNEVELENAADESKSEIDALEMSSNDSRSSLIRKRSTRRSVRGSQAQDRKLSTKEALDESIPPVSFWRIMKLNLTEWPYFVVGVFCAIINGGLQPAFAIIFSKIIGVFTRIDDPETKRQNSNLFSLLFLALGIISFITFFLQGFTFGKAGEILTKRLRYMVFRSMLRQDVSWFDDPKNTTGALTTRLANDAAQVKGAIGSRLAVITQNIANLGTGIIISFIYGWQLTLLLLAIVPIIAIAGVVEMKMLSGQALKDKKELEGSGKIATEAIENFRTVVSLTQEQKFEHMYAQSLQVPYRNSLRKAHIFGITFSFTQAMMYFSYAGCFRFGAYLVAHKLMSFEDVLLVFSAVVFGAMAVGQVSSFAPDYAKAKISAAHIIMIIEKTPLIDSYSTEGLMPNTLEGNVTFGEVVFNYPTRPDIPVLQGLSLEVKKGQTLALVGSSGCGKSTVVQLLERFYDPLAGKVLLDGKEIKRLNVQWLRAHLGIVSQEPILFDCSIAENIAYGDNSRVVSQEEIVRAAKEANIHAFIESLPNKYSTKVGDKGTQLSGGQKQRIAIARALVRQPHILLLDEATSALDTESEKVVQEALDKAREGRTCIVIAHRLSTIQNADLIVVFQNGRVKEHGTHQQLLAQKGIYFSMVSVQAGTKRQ
Method notes: Inhibition of P-glycoprotein (unknown origin) in MDCK-MDR1 assessed as reduction of ATP consumption pre-incubated for 2 hrs followed by substrate addition shaken for 5 mins by luminescence assay
Assay type: cell-based
Test settings: mdck-mdr1, 5 min
Test readout: inhibition (INH)

chemical_structure=COc1cc(/C=C/C(=O)OCCN(C)CCCCCCCCOC(=O)c2c3ccccc3cc3ccccc23)cc(OC)c1OC recorded_measurement="Not Active"
chemical_structure=COc1cc(/C=C/C(=O)OCCCCN(C)CCCCCCOC(=O)c2c3ccccc3cc3ccccc23)cc(OC)c1OC recorded_measurement=Active
chemical_structure=COc1cc(/C=C/C(=O)OCCCCCCCCN(C)CCOC(=O)c2c3ccccc3cc3ccccc23)cc(OC)c1OC recorded_measurement="Not Active"
chemical_structure=COc1cc(/C=C/C(=O)OCCCCCCN(C)CCCCOC(=O)c2c3ccccc3cc3ccccc23)cc(OC)c1OC recorded_measurement="Not Active"
chemical_structure=COc1cc(/C=C/C(=O)OCCCCCCCN(C)CCCOC(=O)c2c3ccccc3cc3ccccc23)cc(OC)c1OC recorded_measurement="Not Active"
chemical_structure=COc1cc(/C=C/C(=O)OCCCCCCCCN(C)CCOC(=O)c2cc(OC)c(OC)c(OC)c2)cc(OC)c1OC recorded_measurement="Not Active"
chemical_structure=COc1cc(/C=C/C(=O)OCCN(C)CCCCCCCCOC(=O)c2cc(OC)c(OC)c(OC)c2)cc(OC)c1OC recorded_measurement="Not Active"
chemical_structure=COc1cc(/C=C/C(=O)OCCCCCCCN(C)CCCOC(=O)c2cc(OC)c(OC)c(OC)c2)cc(OC)c1OC recorded_measurement="Not Active"
chemical_structure=COc1cc(/C=C/C(=O)OCCCCCCN(C)CCCCOC(=O)c2cc(OC)c(OC)c(OC)c2)cc(OC)c1OC recorded_measurement=Active
chemical_structure=COc1cc(/C=C/C(=O)OCCCN(C)CCCCCCCOC(=O)c2c3ccccc3cc3ccccc23)cc(OC)c1OC recorded_measurement="Not Active"

Hello, the source for this data is ChEMBL document CHEMBL4393665, in case you need it.
